systemName: Receptor tyrosine-protein kinase erbB-2 (Homo sapiens)
protocolNotes: Inhibition of GST tagged human HER-2 expressed in baculovirus at pH 7.5 measured after 15 mins in presence of gamma-[33P]-ATP by scintillation counter analysis
measurementLabel: pIC50
# pIC50 is unitless: minus log10 of the molar concentration; print number only

Query :: Give a short answer stating reported pIC50 for Nc1ncnc2c1c(-c1cccc(OCc3ccccc3)c1)cn2[C@H]1C[C@@H](CN2CCC2)C1 .
Result :: 5.39

---

systemName: Epidermal growth factor receptor (Homo sapiens)
Sequence (P00533 whole entry): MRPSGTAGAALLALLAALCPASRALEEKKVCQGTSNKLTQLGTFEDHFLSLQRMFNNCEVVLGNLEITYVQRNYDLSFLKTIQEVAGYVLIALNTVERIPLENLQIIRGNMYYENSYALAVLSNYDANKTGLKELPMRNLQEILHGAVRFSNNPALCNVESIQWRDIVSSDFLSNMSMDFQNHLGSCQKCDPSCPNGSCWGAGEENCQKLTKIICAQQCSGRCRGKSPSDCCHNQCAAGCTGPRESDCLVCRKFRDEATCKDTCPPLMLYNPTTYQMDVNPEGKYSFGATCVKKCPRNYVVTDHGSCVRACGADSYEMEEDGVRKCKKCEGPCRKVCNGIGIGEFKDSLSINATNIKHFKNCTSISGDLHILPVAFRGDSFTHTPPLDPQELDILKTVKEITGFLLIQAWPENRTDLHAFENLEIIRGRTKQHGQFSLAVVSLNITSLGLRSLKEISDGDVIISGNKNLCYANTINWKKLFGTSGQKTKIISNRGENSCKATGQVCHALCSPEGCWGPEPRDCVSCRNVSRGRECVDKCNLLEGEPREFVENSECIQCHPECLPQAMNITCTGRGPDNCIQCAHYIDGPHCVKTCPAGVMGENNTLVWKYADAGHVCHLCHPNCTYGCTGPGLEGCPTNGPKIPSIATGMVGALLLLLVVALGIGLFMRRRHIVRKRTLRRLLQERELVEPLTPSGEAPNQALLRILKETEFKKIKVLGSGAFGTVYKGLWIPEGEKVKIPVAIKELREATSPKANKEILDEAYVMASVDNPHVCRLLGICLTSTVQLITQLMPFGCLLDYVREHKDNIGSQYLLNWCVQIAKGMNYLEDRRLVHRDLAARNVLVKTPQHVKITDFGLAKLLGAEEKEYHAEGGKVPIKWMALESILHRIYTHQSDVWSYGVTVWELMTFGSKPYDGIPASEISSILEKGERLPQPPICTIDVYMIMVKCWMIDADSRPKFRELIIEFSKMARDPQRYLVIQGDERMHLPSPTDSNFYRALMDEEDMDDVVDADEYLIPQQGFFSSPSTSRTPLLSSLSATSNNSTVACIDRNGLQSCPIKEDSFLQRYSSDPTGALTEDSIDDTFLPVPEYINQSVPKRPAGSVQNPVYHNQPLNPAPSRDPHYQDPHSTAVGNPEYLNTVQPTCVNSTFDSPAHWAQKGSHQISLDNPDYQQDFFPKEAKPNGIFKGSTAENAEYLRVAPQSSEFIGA
protocolNotes: Inhibition of GST tagged human HER-1 expressed in baculovirus at pH 7.5 measured after 15 mins in presence of gamma-[33P]-ATP by scintillation counter analysis
measurementLabel: pIC50
pIC50 is a log-scale quantity: -log10 of the concentration expressed in molar.

Query :: Assign pIC50 to the following record: Nc1ncnc2c1c(-c1cccc(OCc3ccccc3)c1)cn2[C@H]1C[C@@H](CN2CCC2)C1
Result :: 5.24

---

systemName: Angiopoietin-1 receptor (Homo sapiens, UniProt Q02763)
Sequence (Q02763 whole entry): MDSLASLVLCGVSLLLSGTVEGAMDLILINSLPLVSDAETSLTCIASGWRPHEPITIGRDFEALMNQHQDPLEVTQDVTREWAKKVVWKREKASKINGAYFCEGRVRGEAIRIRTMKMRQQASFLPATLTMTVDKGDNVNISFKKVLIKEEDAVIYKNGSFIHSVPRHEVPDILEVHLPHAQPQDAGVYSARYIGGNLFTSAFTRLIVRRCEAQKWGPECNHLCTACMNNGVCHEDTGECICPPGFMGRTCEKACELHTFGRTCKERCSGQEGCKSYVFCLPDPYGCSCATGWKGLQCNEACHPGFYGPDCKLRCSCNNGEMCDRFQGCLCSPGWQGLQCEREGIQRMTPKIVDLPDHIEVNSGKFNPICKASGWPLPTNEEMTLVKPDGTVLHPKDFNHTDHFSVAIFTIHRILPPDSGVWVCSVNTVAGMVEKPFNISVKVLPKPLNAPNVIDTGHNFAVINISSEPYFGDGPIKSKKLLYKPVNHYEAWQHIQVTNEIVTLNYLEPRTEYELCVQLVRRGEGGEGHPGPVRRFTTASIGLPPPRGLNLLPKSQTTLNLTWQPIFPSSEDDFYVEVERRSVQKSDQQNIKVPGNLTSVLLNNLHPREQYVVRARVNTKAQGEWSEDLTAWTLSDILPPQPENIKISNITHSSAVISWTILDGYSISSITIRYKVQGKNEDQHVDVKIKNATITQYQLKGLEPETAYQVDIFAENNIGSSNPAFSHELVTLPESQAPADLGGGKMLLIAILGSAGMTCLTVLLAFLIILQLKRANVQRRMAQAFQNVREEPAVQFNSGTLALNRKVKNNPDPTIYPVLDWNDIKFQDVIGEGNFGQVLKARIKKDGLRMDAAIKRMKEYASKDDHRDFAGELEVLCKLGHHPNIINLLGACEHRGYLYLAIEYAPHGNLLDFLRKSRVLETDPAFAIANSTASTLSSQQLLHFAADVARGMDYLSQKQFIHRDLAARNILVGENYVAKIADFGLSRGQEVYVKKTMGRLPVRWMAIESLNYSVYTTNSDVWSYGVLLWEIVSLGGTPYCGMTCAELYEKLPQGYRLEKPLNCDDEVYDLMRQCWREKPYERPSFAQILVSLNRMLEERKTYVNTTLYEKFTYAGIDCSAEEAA
protocolNotes: Inhibition of GST tagged Tek (unknown origin) expressed in baculovirus at pH 7.6 measured after 10 to 30 mins in presence of gamma-[33P]-ATP by scintillation counter analysis
measurementLabel: pIC50
# pIC50 is unitless: minus log10 of the molar concentration; print number only

Query :: Read the entry Nc1ncnc2c1c(-c1cccc(OCc3ccccc3)c1)cn2[C@H]1C[C@@H](CN2CCC2)C1 and write its reported pIC50.
Result :: 6.28

---

systemName: RAF proto-oncogene serine/threonine-protein kinase (Homo sapiens, UniProt P04049)
Sequence (P04049 whole entry): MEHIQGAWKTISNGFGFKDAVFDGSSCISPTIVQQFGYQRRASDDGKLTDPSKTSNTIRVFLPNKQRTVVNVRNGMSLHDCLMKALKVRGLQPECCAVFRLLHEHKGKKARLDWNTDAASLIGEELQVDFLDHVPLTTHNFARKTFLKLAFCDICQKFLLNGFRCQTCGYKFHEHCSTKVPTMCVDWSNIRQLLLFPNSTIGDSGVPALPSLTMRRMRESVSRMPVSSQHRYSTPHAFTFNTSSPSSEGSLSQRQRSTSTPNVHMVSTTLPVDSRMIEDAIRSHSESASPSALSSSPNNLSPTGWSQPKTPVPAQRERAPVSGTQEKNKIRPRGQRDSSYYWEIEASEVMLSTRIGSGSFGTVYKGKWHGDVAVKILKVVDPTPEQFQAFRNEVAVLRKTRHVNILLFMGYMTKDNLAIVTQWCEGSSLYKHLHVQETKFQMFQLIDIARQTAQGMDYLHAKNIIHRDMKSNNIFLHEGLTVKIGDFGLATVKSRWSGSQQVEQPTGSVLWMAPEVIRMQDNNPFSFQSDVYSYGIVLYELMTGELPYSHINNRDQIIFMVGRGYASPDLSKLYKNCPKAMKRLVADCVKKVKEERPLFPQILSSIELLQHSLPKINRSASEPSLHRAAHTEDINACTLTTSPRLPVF
protocolNotes: Inhibition of GST-tagged c-Raf-1 (unknown origin) expressed in baculovirus infected in Sf21 cells at pH 7.5 measured after 30 mins in presence of gamma-[33P]-ATP by scintillation counter analysis
pIC50: −log10 of the molar value.
measurementLabel: pIC50

Query :: Tell me its pIC50 given Nc1ncnc2c1c(-c1cccc(OCc3ccccc3)c1)cn2[C@H]1C[C@@H](CN2CCC2)C1 as the entry.
Result :: < 5.00

---

systemName: UniProtKB P00523
protocolNotes: Inhibition of GST tagged chicken c-Src expressed in baculovirus at pH 7.5 measured after 10 mins in presence of gamma-[33P]-ATP by scintillation counter analysis
measurementLabel: pIC50
Bear in mind: pIC50 is minus log10 of a mol/L concentration; give just that figure.

Query :: Respond only with pIC50 recorded for Nc1ncnc2c1c(-c1cccc(OCc3ccccc3)c1)cn2[C@H]1C[C@@H](CN2CCC2)C1
Result :: 5.62

---

systemName: Receptor tyrosine-protein kinase erbB-4 (Homo sapiens, UniProt Q15303)
protocolNotes: Inhibition of GST tagged human HER-4 expressed in baculovirus at pH 7.5 measured after 15 mins in presence of gamma-[33P]-ATP by scintillation counter analysis
measurementLabel: IC50 (nM)
Provide the reading as a plain figure in nM.

Query :: Please report IC50 with Receptor tyrosine-protein kinase erbB-4 (Homo sapiens, UniProt Q15303) for item Nc1ncnc2c1c(-c1cccc(OCc3ccccc3)c1)cn2[C@H]1C[C@@H](CN2CCC2)C1 .
Result :: 1400

---

systemName: Vascular endothelial growth factor receptor 3 (Homo sapiens, UniProt P35916)
Sequence (P35916 whole entry): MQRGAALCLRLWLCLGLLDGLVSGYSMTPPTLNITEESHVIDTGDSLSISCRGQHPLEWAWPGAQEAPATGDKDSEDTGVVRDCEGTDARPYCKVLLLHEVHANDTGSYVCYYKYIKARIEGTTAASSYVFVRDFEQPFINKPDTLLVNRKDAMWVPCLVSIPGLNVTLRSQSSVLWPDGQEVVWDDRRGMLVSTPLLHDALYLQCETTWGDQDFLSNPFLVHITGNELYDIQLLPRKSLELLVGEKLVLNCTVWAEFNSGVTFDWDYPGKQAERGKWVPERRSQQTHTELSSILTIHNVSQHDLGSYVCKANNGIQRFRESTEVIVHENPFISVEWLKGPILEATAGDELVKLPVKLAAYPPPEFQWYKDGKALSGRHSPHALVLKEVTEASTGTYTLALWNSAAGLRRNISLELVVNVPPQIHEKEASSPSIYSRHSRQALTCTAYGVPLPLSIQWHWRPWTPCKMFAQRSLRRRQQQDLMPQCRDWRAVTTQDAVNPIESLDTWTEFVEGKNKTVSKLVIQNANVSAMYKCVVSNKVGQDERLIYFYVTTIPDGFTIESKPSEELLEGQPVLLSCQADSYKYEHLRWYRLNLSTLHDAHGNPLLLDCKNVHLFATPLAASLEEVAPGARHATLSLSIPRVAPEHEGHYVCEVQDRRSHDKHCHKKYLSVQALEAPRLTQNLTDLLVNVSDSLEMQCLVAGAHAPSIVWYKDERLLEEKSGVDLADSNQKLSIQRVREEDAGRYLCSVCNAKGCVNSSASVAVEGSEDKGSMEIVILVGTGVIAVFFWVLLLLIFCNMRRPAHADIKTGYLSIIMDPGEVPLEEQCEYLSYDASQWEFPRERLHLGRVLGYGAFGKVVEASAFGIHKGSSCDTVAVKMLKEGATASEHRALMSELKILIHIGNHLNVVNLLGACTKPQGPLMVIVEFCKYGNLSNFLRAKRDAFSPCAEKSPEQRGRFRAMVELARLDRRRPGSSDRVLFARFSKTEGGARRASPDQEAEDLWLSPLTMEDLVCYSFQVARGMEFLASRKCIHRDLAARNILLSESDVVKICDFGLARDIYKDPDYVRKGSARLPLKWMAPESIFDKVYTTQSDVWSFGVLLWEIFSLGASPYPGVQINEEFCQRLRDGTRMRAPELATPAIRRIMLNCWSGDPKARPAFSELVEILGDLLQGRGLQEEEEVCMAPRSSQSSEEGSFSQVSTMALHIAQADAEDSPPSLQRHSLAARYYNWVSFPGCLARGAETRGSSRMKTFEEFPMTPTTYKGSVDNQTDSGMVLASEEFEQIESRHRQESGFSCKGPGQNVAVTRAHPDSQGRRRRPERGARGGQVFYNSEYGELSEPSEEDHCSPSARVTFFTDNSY
protocolNotes: Inhibition of GST tagged human Flt-4 expressed in baculovirus at pH 7.6 measured after 15 mins in presence of gamma-[33P]-ATP by scintillation counter analysis
measurementLabel: IC50 (nM)
Give your result in nM as a bare value.

Query :: Annotate the compound Nc1ncnc2c1c(-c1cccc(OCc3ccccc3)c1)cn2[C@H]1C[C@@H](CN2CCC2)C1 with its measured IC50.
Result :: 2400
